Consider the following compounds and their measured inhibition at 50 µM readings.
Biological target: UniProt P0DP23
Test: calcium-dependent phosphodiesterase assay (inhibition of calmodulin activity)
Type: biochemical
Conditions: inhibition of calmodulin activation of phosphodiesterase at 50 μM peptide; PDE without calmodulin = 100%, Calmo = 0%
Square brackets hold non-standard residues; d marks the D form. Peptide text beside a SMILES is read from it.
Remember to follow the number with its unit.

COMPOUND	MEASURED_TARGET	RESULT_VALUE
CC[C@@H](C)[C@@H](NC(=O)[C@@H](Cc1c[nH]c2ccccc12)NC(=O)[C@@H](CC(C)C)NC(C)=O)C(=O)N[C@@H](C(=O)N[C@H](Cc1c[nH]cn1)C(=O)N[C@H](CCCNC(=N)N)C(N)=O)[C@H](C)CC (Ac-[dL][dW][dI][dI][dH][dR]-NH2)	UniProt P0DP23	89.5%

For the compound CC[C@@H](C)[C@@H](NC(=O)[C@@H](CCC(N)=O)NC(=O)[C@@H](CC(C)C)NC(C)=O)C(=O)N[C@H](Cc1c[nH]cn1)C(=O)N[C@H](Cc1c[nH]cn1)C(=O)N[C@H](Cc1c[nH]c2ccccc12)C(N)=O (Ac-[dL][dQ][dI][dH][dH][dW]-NH2) , what inhibition at 50 µM is on record?
60.5%
